// reported IC50 for each item listed
# Test system: CD19 CAR T cells
# test description: CAR T cell cytokine production (Luminex) under CD19 K562, KIP-1 or CD2/3/28 stimulation
# condition label: Homo sapiens, T-cell, 72 h, read-out: Suppression of cytokine production, MIP-1b (IC50), KIP-1 stimulation, 72 h
Respond numerically; units are nM and should not be typed.

molecule: CC[C@@H]1CN(C(=O)NCC(F)(F)F)C[C@@H]1c1cnc2cnc3[nH]ccc3n12 [upadacitinib]
IC50 / nM: 146

Next item in the queue.
Value lookup for IC50; key = N#CCC1(n2cc(-c3ncnc4[nH]ccc34)cn2)CN(C2CCN(C(=O)c3ccnc(C(F)(F)F)c3F)CC2)C1 [itacitinib]
553

---

# Test system: phospho-STAT panel (pSTAT3/4/5), CD3+ T cells
# test description: phospho-STAT induction by IL-6, MesoScale Discovery phospho-STAT panel
# Type: cell-based, human
# condition label: lower dose titration, CD3+ T cells, IL-6 + drug 3.125 nM; MSD signal (No stim. 281, IL-6 alone 3624)
measure name: pSTAT4
Hey, just send me the number, nothing else.

compound smiles: O=C(Nc1nc2cccc(-c3ccc(CN4CCS(=O)(=O)CC4)cc3)n2n1)C1CC1
system: phospho-STAT panel (pSTAT3/4/5), CD3+ T cells
pSTAT4: 3059
//
compound smiles: C[C@@H]1CCN(C(=O)CC#N)C[C@@H]1N(C)c1ncnc2[nH]ccc12
system: phospho-STAT panel (pSTAT3/4/5), CD3+ T cells
pSTAT4: 3525
//
compound smiles: CCS(=O)(=O)N1CC(CC#N)(n2cc(-c3ncnc4[nH]ccc34)cn2)C1
system: phospho-STAT panel (pSTAT3/4/5), CD3+ T cells
pSTAT4: 2961

Next:
Value lookup for pSTAT4; key = CC[C@@H]1CN(C(=O)NCC(F)(F)F)C[C@@H]1c1cnc2cnc3[nH]ccc3n12
2687

---

# test description: in vitro
# condition label: human
measure name: viability at 4 day, 100 nM (%)
Number only, in %; omit the unit.

Please give the measured viability at 4 day, 100 nM for this compound: C[C@@H]1CCN(C(=O)CC#N)C[C@@H]1N(C)c1ncnc2[nH]ccc12 [tofacitinib]
61.8

---

# test description: in vitro
# condition label: human
measure name: viability at 0 day, 500 nM (%)
Answer format: numeric, % implied, no suffix.

Query (compound): O=C(Nc1nc2cccc(-c3ccc(CN4CCS(=O)(=O)CC4)cc3)n2n1)C1CC1 ; field requested: viability at 0 day, 500 nM
75

---

# Test system: CD19 CAR T cells
# test description: CAR T cell cytokine production (Luminex) under CD19 K562, KIP-1 or CD2/3/28 stimulation
# condition label: read-out: Suppression of cytokine production, IL-10 (IC50); K562-CD19 stimulation, 72 h
measure name: pIC50
The scale used: pIC50 is minus the common logarithm of the concentration in molar units.

I would be grateful if you could share the reported pIC50 for Nc1nc2cccc(-c3ccc(CN4CCS(=O)(=O)CC4)cc3)n2n1 .
5.40

---

# Test system: phospho-STAT panel (pSTAT3/4/5), CD3+ T cells
# test description: phospho-STAT induction by IL-6, MesoScale Discovery phospho-STAT panel
# Type: cell-based, human
# condition label: lower dose titration, CD3+ T cells, IL-6 + drug 100 nM; MSD signal (No stim. 324, IL-6 alone 2352)
Recorded pSTAT5 values for a group of molecules are listed next.
Keep it simple and answer with nothing but the number.

Some entries whose results are on file:
compound smiles: C[C@@H]1CCN(C(=O)CC#N)C[C@@H]1N(C)c1ncnc2[nH]ccc12
pSTAT5: 513

compound smiles: CC[C@@H]1CN(C(=O)NCC(F)(F)F)C[C@@H]1c1cnc2cnc3[nH]ccc3n12
pSTAT5: 375

compound smiles: O=C(Nc1nc2cccc(-c3ccc(CN4CCS(=O)(=O)CC4)cc3)n2n1)C1CC1
pSTAT5: 1246

Please give the measured pSTAT5 for this molecule: CCS(=O)(=O)N1CC(CC#N)(n2cc(-c3ncnc4[nH]ccc34)cn2)C1
471
